These entries and their values trace back to paper PMC6370995.

Assay: 7-Day Oral Toxicity Study in Monkeys
Format: in vivo, cynomolgus monkey
Settings: both sexes, cynomolgus monkey, plasma, oral; Day 7, males and females, 150 mg/kg/day; read-out: total Cmax

>  <compound>
O=C(Cc1ccc(F)cc1)Nn1c(C2CC2)nc2cc(F)ccc2c1=O [PF‐04895162]

>  <Cmax>
> 27000 ng/mL

$$$$

* * *

Test system: liver mitochondrial function
Test: mitochondrial state 3/4 respiration in the presence of glutamate/malate
Format: biochemical
Details: N = 2; read-out: IC50 for uncoupling activity

>  <item-smiles>
O=C(Cc1ccc(F)cc1)Nn1c(C2CC2)nc2cc(F)ccc2c1=O

>  <IC50>
> 100 µM

$$$$
